// provenance: paper PMC3839042

biological target: human S100A2 (human, UniProt P29034 1-98); test: other fluorescence titration
Sequence (P29034 whole entry, one chain of several): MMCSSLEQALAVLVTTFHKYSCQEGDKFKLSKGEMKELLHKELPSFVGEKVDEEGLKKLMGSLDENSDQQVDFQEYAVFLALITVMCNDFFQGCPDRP
Task for the reader: assign each of the following binders its reported pKd.
Please note pKd is a logarithmic value: minus log10 of concentration in mol/L. Answer with that number alone.

Param item = Ac-ARTKIDWNKILS-NH2 [TRTKM1 (Ac-ARTKIDWNKILS-NH2)] ; retrieve measured pKd.
4.80

Param item = Ac-TRTKIDWNAILS-NH2 [TRTKM9 (Ac-TRTKIDWNAILS-NH2)] ; retrieve measured pKd.
4.77

Param item = Ac-TRTKIAWNKILS-NH2 [TRTKM6 (Ac-TRTKIAWNKILS-NH2)] ; retrieve measured pKd.
4.64
